Record form. Attribute: terephthalic acid. Fill in for each entry.
assay: terephthalic acid (TPA) released, HPLC; higher = more TPA released; extreme values may be limits of the assay; conditions: PET substrate: cryPow; 60 °C; pH 4.5; 24 h
Give bare numbers, in mM.

Known terephthalic acid results, listed for orientation:
# Sequence data, Quantity measured, Endpoint result
records = [
    ("SNPYQRGPNPTRSALTADGPFSVATYTVSRLSVSGFGGGVIYYPTGTSLTFGGIAMSPGYTADASSLAWLGRRLASHGFVVLVINTNSRFDGPDSRASQLSAALNYLRTSSPSAVRARLDANRLAVAGHSMGGGGTLRIAEQNPSLKAAVPLTPWHTDKTFNTSVPVLIVGAEADTVAPVSQYAIPFYQNLPSTTPKVYVELCNASHIAPNSDNAAISVYTISWMKLWVDNDTRYRQFLCNVNDPALCDFRTNNRHCQ [LCC-A2]", "terephthalic acid", 0.0633),
    ("SNPYQRGPNPTRSALTATGPFSVATYTVSRLLVSGFGGGVIYYPTGTSLTFGGIAMSPGYTADASSLAWLGRRLASHGFVVLVINTNSRFDGPDSRARQLSAALNYLRTSSPSAVRARLDANRLAVAGHSMGGGGTLRIAEQNPSLKAAVPLTPWHPDKTFNTSVPVLIVGAQADTVAPVSQHAIPFYQNLPSTTPKVYVELCNASHIAPNSPNAAISVYTISWMKLWVDNDTRYRQFLCNVNDPALCDFRTNNRHCQ [LCC-ICCG I6M]", "terephthalic acid", 0.0328),
    ("ANPYERGPNPTDALLEARSGPFSVSEENVSRLSASGFGGGTIYYPRENNTYGAVAISPGYTGTEASIAWLGERIASHGFVVITIDTITTLDQPDSRAEQLNAALNHMINRASSTVRSRIDSSRLAVMGHSMGGGGSLRLASQRPDLKAAIPLTPWHLNKNWSSVTVPTLIIGADLDTIAPVATHAKPFYNSLPSSISKAYLELDGATHFAPNIPNKIIGKYSVAWLKRFVDNDTRYTQFLCPGPRDGLFGEVEEYRSTCPF [TfCut2]", "terephthalic acid", 0),
]

# terephthalic acid of QDNPYERGPDPTEDSIEAIRGPFSVATERVSSFASGFGGGTIYYPRETDEGTFGAVAVAPGFTASQGSMSWYGERVASHGFIVFTIDTNTRLDAPGQRGRQLLAALDYLVERSDRKVRERLDPNRLAVMGHSMGGGGSLEATVMRPSLKASIPLTPWHLDKTWGQVQVPTFIIGAELDTIAPVSTHAKPFYESLPSSLPKAYMELCGATHFAPNIPNTTIAKYVISWLKRFVDEDTRYSQFLCPNPTDRAICEYRSTCPY [Cut190*SS] = 0

* * *

Record form. Attribute: MHET released. Fill in for each entry.
test: MHET released, HPLC; higher = more MHET released; extreme values may be limits of the assay; details: PET substrate: aFilm; 70 °C; pH 6.5; 24 h
Answers are plain numbers, in mM.

Known MHET released results, listed for orientation:
# Sequence data, Quantity measured, Endpoint result
records = [
    ("QTNPYARGPDPTAASLEASAGPFTVRSFTVSRPSGYGAGTVYYPTNAGGTVGAIAIVPGYTARQSSIKWWGPRLASHGFVVITIDTNSTLDQPESRSSQQMAALEQVASLNGTSSSPIYGKVDTARMGVMGWSMGGGGSLISACNNPSLKAAVVQAPWHSSTNFSCVTVPTLIFACENDSIAPVNSSALPIYDSMSENAKQFLEICGGSHSCANTGNSDQALIGKKGVAWMKRFMDNDTRYSTFACENPNSTRVCDFRTANCS [Z1-PETase]", "MHET released", 0),
    ("SNPYQRGPNPTRSALTADGPFSVATYTVSRLSVSGFGGGVIYYPTGTSLTFGGIAMSPGYTADASSLAWLGRRLASHGFVVLVINTNSRFDGPDSRASQLSAALNYLRTSDPSAVRARLDANRLAVAGHSMGGGATLRIAEQNPSLKAAIPLTPWHTQKTFNTSVPVLIVGAEADTVAPVSQHAIPFYQNLPSTTPKVYVELCNASHIAPNSNNAAISVYTISWMKLWVDNDTRYRQFLCNVNDPALCDFRTNNRHCQ [LCC-ICCG DAQI]", "MHET released", 0.371),
    ("SNPYQRGPNPTRSALTADGPFSVRTYTISRLSVSGFGGGVIYYPTGTSLTFGGIAMSPGYTADASSLAWLGRRLASHGFVVLVINTNSRFDGPDSRASQLSAALNYLRTSSPSAVRARLDANRLAVAGHSMGGGGTLRIAEQNPSLKAAVPLTPWHTDKTFNTSVPVLIVGAEADTVAPVSQHAIPFYQNLPSTTPKVYVELCNASHIAPNSPNAAISVYTISWMKLWVDNDTRYRQFLCNVNDPALCDFRTNNRHCQ [LCC-ICCG RIP]", "MHET released", 0.352),
    ("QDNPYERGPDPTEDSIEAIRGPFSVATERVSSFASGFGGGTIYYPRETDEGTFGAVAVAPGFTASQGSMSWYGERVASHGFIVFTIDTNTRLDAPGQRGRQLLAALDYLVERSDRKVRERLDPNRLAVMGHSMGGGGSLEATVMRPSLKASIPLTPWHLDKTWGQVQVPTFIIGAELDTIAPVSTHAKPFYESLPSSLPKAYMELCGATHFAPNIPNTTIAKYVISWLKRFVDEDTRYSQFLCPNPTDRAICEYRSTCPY [Cut190*SS]", "MHET released", 0),
    ("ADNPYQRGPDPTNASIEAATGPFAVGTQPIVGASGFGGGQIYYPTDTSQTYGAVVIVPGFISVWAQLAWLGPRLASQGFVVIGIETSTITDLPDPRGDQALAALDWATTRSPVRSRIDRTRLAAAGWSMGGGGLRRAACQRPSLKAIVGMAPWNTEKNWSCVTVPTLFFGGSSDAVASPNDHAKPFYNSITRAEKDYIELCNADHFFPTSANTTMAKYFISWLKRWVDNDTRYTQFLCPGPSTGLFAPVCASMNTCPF [CaPETaseM9]", "MHET released", 0),
    ("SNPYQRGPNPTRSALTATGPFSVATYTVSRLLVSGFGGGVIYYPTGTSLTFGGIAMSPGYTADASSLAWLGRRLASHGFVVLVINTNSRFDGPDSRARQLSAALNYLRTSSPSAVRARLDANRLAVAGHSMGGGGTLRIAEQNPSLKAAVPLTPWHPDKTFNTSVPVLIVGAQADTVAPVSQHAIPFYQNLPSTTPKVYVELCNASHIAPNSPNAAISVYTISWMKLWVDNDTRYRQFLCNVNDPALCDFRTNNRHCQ [LCC-ICCG I6M]", "MHET released", 0.211),
]

Record MHET released per entry; entries follow.
1. QTNPYARGPNPTAASLEASAGPFTVRSFTVARPVGYGAGTVYYPTNAGGTVGAIAIVPGYTATQSSINWWGPRLASHGFVVITIDTNSTLDKPESRSSQQMAALRQVASLNGTSSSPIYGKVDTARGGVMGWSMGGGGSLISAANNPSLKAAAVMAPWHSSTNFSSVTVPTLIFACENDRIAPVKEYALPIYDSMSLNAKQFLEICGGSHSCACSGNSNQALIGMKGVAWMKRFMDNDTRYSQFACENPNSTAVCDFRTANCS [HotPETase]
2. SNPYQRGPNPTRSALTADGPFSVATYTVSRLSVSGFGGGVIYYPTGTSLTFGGIAMSPGYTADASSLAWLGRRLASHGFVVLVINTNSRFDGPDSRASQLSAALNYLRTSSPSAVRARLDANRLAVAGHSMGGGGTLRIAEQNPSLKAAVPLTPWHTDKTFNTSVPVLIVGAEADTVAPVSQHAIPFYQNLPSTTPKVYVELCNASHIAPNSNNAAISVYTISWMKLWVDNDTRYRQFLCNVNDPALCDFRTNNRHCQ [LCC-ICCG]
3. QTNPYARGPNPTAASLEASAGPFTVRSFTVSRPSGYGAGTVYYPTNAGGTVGAIAIVPGYTARQSSIKWWGPRLASHGFVVITIDTNSTFDYPSSRSSQQMAALRQVASLNGDSSSPIYGKVDTARMGVMGHSMGGGASLRSAANNPSLKAAIPQAPWDSQTNFSSVTVPTLIFACENDSIAPVNSHALPIYDSMSRNAKQFLEINGGSHSCANSGNSNQALIGKKGVAWMKRFMDNDTRYSTFACENPNSTAVSDFRTANCS [DuraPETase]

0.0858
0.356
0

Record MHET released per entry; entries follow.
1. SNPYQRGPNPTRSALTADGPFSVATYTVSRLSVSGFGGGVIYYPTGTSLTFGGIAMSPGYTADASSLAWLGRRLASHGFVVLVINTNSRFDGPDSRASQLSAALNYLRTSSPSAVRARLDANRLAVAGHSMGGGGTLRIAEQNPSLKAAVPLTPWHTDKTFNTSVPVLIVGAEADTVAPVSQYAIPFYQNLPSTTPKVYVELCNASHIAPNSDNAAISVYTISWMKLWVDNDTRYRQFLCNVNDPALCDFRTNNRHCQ [LCC-A2]
2. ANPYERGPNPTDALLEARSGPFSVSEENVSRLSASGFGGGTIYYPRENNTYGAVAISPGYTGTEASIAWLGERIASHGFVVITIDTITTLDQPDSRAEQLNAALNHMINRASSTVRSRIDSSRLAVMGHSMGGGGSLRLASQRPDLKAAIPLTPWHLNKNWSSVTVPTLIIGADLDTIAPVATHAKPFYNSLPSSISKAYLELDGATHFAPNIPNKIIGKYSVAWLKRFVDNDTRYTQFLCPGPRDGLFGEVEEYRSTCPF [TfCut2]

1: 0.862; 2: 0.00766
